- assay.text: PK studies in mice
- Format: in vivo, BALB/c female mice
- test.settings: female, BALB/c, mouse, plasma, iv, 2 mg/kg
assay.readout: Tmax (min)
Could you give me the number in min? Just the number is fine.

// field: Tmax; key: CC(C)=CC(=O)Nc1ccc(C2=C(c3ccc(O)cc3)C3OC2CC3S(=O)(=O)N(CC(F)(F)F)c2ccc(O)cc2)cc1 (stereo not shown) [Compound 29c] ; value = 4.98

###

- System: LCC-2 cells
- assay.text: Cell viability assay on tamoxifen-resistant LCC-2 cells
- Type: cell-based
- test.settings: Homo sapiens, LCC2, read-out: LCC-2 IC50
assay.readout: log10 IC50 (log10 of the value in µM)
Could you please treat all values as log10 of IC50 in µM?

# compound, assay.readout, result.value
rows = [
    ("CC(C)=CC(=O)Nc1ccc(C2=C(c3ccc(O)cc3)C3OC2CC3S(=O)(=O)N(CC(F)(F)F)c2ccc(O)cc2)cc1 (centres unmarked) [Compound 29c]", "log10 IC50", 0.32),
    ("COc1ccc(N(CC(F)(F)F)S(=O)(=O)C2CC3OC2C(c2ccc(O)cc2)=C3c2ccc(NC(=O)C=C(C)C)cc2)cc1 (centres unmarked) [Compound 29f]", "log10 IC50", 1.18),
    ("CC/C(=C(\\c1ccc(O)cc1)c1ccc(OCCN(C)C)cc1)c1ccccc1 [Compound 4-OHT, 4-hydroxytamoxifen, reference compound]", "log10 IC50", 1.35),
    ("CCN(c1ccc(O)cc1)S(=O)(=O)C1CC2OC1C(c1ccc(O)cc1)=C2c1ccc(NC(=O)C=C(C)C)cc1 (centres unmarked) [Compound 29i]", "log10 IC50", 0.61),
]

Alright, here's another compound for you.
Quick note, log10 IC50 for C[C@]12CC[C@@H]3c4ccc(O)cc4C[C@@H](CCCCCCCCC[S+]([O-])CCCC(F)(F)C(F)(F)F)[C@H]3[C@@H]1CC[C@@H]2O (some centres unmarked) [Ful, Fulvestrant, reference compound] landed at 1.04
